Where do these numbers come from? They come from paper PMC7094256.

biological target: GST-tagged human heterogeneous nuclear ribonucleoprotein A1 (human, UniProt P09651-2 1-320); assay: SPR
pKd: −log10 of the molar value.
observedProperty: pKd

[[record]]
binder = "ASSRSSSRSRGNSRN [synthesized peptide ASSRSSSRSRGNSRN (aa 183–197 of SARS_N)]"
observedproperty = "pKd"
measured = 3.83

